These entries and their values trace back to ChEMBL document CHEMBL2021893.

system: Mycobacterium tuberculosis; assay: Antimycobacterial activity against multidrug-resistant Mycobacterium tuberculosis isolate 164 from Chinese tuberculosis patient measured 24 hrs post dose by microplate alamar blue assay; type: functional; settings: isolate 164, 24 h
recorded_metric: MIC (µg/mL)
Reply numerically in µg/mL, unit not repeated.

I'd like to know its MIC. The compound in question is NNC(=O)c1ccncc1 [ISONIAZID]
4

Cool, now CCCCCCCCc1c2[n+](cc3c(OCC)c(OC)ccc13)CCc1cc(OCC)c(OCC)cc1-2.[Cl-]
0.125

Cool, now CCCCCCCCc1c2[n+](cc3c(OC)c(OC)ccc13)CCc1cc(OCC)c(OCC)cc1-2.[Cl-]
4

Cool, now CCCCCCCCc1c2[n+](cc3c(OC)c(OC)ccc13)CCc1cc3c(cc1-2)OCO3.[Cl-]
4

Cool, now CCCCCCCCc1c2[n+](cc3c(OCc4ccccc4)c(OC)ccc13)CCc1cc(OCc3ccccc3)c(O)cc1-2.[Cl-]
1

---

Consider the following compounds; for each one, report its MIC.
tested on: Mycobacterium tuberculosis; assay: Antimycobacterial activity against multidrug-resistant Mycobacterium tuberculosis isolate 431 from Chinese tuberculosis patient measured 24 hrs post dose by microplate alamar blue assay; assay type: functional; settings: isolate 431, 24 h
Reply numerically in µg/mL, unit not repeated.

I'd like to know its MIC. The compound in question is CCCCCCCCc1c2[n+](cc3c(OCC)c(OC)ccc13)CCc1cc(OCC)c(OCC)cc1-2.[Cl-]
0.5

Cool, now NNC(=O)c1ccncc1 [ISONIAZID]
64

Cool, now CCCCCCCCc1c2[n+](cc3c(OCc4ccccc4)c(OC)ccc13)CCc1cc(OCc3ccccc3)c(O)cc1-2.[Cl-]
0.25

Cool, now CCCCCCCCc1c2[n+](cc3c(OC)c(OC)ccc13)CCc1cc3c(cc1-2)OCO3.[Cl-]
4
